Ref: patent US9718816B2

study-target: CARM1 (Homo sapiens, UniProt Q86X55)
Construct: Flag-CARM1-His
Sequence (Q86X55 1-585 isoform Q86X55-1): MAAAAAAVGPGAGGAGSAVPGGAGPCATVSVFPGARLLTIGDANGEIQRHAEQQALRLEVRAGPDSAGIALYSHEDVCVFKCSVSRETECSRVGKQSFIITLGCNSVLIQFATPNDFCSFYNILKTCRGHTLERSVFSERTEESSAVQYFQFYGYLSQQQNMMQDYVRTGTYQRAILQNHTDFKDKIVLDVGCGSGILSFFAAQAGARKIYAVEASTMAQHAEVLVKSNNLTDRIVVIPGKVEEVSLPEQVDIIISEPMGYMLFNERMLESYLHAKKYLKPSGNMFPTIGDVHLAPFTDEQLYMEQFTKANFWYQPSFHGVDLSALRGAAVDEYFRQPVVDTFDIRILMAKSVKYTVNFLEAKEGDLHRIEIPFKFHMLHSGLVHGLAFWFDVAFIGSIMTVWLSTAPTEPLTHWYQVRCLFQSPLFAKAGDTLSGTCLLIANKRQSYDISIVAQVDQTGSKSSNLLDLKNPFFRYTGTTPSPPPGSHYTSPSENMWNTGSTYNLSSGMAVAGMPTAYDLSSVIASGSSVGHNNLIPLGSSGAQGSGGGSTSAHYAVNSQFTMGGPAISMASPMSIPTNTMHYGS
assay-procedure: CARM1 enzyme assay on peptide substrate (3H-SAM Flashplate)
settings: CARM1 0.25 nM, 3H-SAM 30 nM, peptide 250 nM, 30 min preincubation; read-out: Biochem IC50
measured-metric: IC50

Some solved entries appear below for comparison.
CNCC(O)COc1cccc(-c2cc(NC(=O)OC)c3cnn(C(C)C)c3n2)c1 (centres unmarked): 100 to 1000 nM
CNCC(O)COc1cccc(-c2cc(NCCCCN)c3cnn(C(C)C)c3n2)c1 (centres unmarked): < 100 nM
CNCC(O)COc1cccc(-c2cc(NCc3nnn[nH]3)c3cnn(C(C)C)c3n2)c1 (centres unmarked): < 100 nM
CNCC(O)COc1cccc(-c2cc(N[C@H]3CO[C@@H]4OCC[C@@H]43)c3cnn(C(C)C)c3n2)c1 (some centres unmarked): 100 to 1000 nM
CNCC(O)COc1cccc(-c2cc(NCCNC(=O)c3cccnc3)c3cnn(C(C)C)c3n2)c1 (centres unmarked): 100 to 1000 nM

Input CNCC(O)COc1cccc(-c2cc(NCCCNC(=O)c3ccn(C)n3)c3cnn(C(C)C)c3n2)c1 (centres unmarked) , output reported IC50. 100 to 1000 nM

Input CNCC(O)COc1cccc(-c2cc(N)c3cnn(C(C)C)c3n2)c1 (centres unmarked) , output reported IC50. 1000 to 3000 nM
